Cited source for all entries: patent US8536354B2

Answer each item with its documented Emax.
molecular target: Bemisia argentifolii EcR (BaEcR-DEF) (Bemisia argentifolii (Bemisia tabaci biotype B / MEAM1), UniProt A0A6M3RDR8); experiment: Two-hybrid gene switch assay, BaEcR-DEF in NIH3T3 cells; conditions: NIH3T3, 48 h, read-out: rel max FI (PoA), BA
Sequence (A0A6M3RDR8 entry or part of it, one chain of several): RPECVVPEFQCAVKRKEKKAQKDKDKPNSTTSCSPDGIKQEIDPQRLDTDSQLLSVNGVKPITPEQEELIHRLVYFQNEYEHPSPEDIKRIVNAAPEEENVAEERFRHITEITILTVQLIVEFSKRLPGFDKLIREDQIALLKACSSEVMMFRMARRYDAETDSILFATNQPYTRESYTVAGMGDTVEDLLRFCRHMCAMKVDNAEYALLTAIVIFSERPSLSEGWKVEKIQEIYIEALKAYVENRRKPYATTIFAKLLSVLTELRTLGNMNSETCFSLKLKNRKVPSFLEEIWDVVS
Give just the number in %; leave the unit off.

q: Emax for CO[C@@H]1C[C@H]2C(=O)C=C3[C@H](CC[C@]4(C)[C@@H]([C@@](C)(O)[C@H](O)CCC(C)(C)O)CC[C@@]34O)[C@@]2(C)C[C@@H]1O [20E-3-methyl ether] ?
a: 23

q: Can you share its Emax? I mean this compound: CO[C@H](CCC(C)(C)O)[C@](C)(O)C1CC[C@@]2(O)C3=CC(=O)C4C[C@@H](O)[C@@H](O)CC4(C)C3CCC12C (some centres unmarked) [20E-22-methyl ether]
a: 123

q: Value lookup for Emax; key = CO[C@H]1C[C@@]2(C)[C@@H](C[C@H]1O)C(=O)C=C1[C@@H]2CC[C@]2(C)[C@@H]([C@@](C)(O)[C@@H](CCC(C)(C)O)OC)CC[C@@]12O [20E-2,22-dimethyl ether]
a: 19

q: What measured Emax goes with CO[C@@H]1C[C@H]2C(=O)C=C3[C@H](CC[C@]4(C)[C@@H]([C@@](C)(O)[C@@H](CCC(C)(C)O)OC)CC[C@@]34O)[C@@]2(C)C[C@@H]1O [20E-3,22-dimethyl ether] ?
a: 30

q: Given the compound CO[C@H]1C[C@@]2(C)[C@@H](C[C@H]1O)C(=O)C=C1[C@@H]2CC[C@]2(C)[C@@H]([C@@](C)(O)[C@H](O)CCC(C)(C)O)CC[C@@]12O [20E-2-methyl ether] , what is its reported Emax?
a: 3

* * *

system: Nephotettix cincticeps EcR (NcEcR-DEF); test: Two-hybrid gene switch assay, NcEcR-DEF in NIH3T3 cells; settings: max fold induction at any concentration relative to PoA
parameter_measured: rel max FI (PoA), NC
// keep it numeric: no unit symbol after the value

q: What value of measured rel max FI (PoA), NC is listed for CO[C@H]1C[C@@]2(C)[C@@H](C[C@H]1O)C(=O)C=C1[C@@H]2CC[C@]2(C)[C@@H]([C@@](C)(O)[C@@H](CCC(C)(C)O)OC)CC[C@@]12O [20E-2,22-dimethyl ether] ?
a: 0.86

q: # rel max FI (PoA), NC lookup, item CO[C@H](CCC(C)(C)O)[C@](C)(O)C1CC[C@@]2(O)C3=CC(=O)C4C[C@@H](O)[C@@H](O)CC4(C)C3CCC12C (stereo partly drawn) [20E-22-methyl ether]
a: 1.05

q: Item CO[C@@H]1C[C@H]2C(=O)C=C3[C@H](CC[C@]4(C)[C@@H]([C@@](C)(O)[C@H](O)CCC(C)(C)O)CC[C@@]34O)[C@@]2(C)C[C@@H]1O [20E-3-methyl ether] has what recorded rel max FI (PoA), NC?
a: 1.04

q: Would you kindly share the measured rel max FI (PoA), NC for CO[C@@H]1C[C@H]2C(=O)C=C3[C@H](CC[C@]4(C)[C@@H]([C@@](C)(O)[C@@H](CCC(C)(C)O)OC)CC[C@@]34O)[C@@]2(C)C[C@@H]1O [20E-3,22-dimethyl ether] ?
a: 1.06

q: Please give the measured rel max FI (PoA), NC for this molecule: COC1C[C@H]2C(=O)C=C3[C@H](CC[C@]4(C)[C@@H]([C@@](C)(O)C(CCC(C)(C)O)OC)CC[C@@]34OC)[C@@]2(C)CC1OC (stereo partly drawn) [20E-2,3,14,22-tetramethyl ether]
a: 0.01

q: I am curious: what rel max FI (PoA), NC value has been reported for CO[C@H]1C[C@@]2(C)[C@@H](C[C@H]1O)C(=O)C=C1[C@@H]2CC[C@]2(C)[C@@H]([C@@](C)(O)[C@H](O)CCC(C)(C)O)CC[C@@]12O [20E-2-methyl ether] ?
a: 0.84

* * *

molecular target: wild-type Drosophila melanogaster EcR (DmEcR-DEF) (Drosophila melanogaster, UniProt P34021); assay: Two-hybrid gene switch assay, DmEcR-DEF in NIH3T3 cells; settings: EC50 (μM), DM, DmEcR, NIH3T3 cells, luciferase, 48 h, ligand 0.01-33 μM
Sequence (P34021 342-878 limits assumed): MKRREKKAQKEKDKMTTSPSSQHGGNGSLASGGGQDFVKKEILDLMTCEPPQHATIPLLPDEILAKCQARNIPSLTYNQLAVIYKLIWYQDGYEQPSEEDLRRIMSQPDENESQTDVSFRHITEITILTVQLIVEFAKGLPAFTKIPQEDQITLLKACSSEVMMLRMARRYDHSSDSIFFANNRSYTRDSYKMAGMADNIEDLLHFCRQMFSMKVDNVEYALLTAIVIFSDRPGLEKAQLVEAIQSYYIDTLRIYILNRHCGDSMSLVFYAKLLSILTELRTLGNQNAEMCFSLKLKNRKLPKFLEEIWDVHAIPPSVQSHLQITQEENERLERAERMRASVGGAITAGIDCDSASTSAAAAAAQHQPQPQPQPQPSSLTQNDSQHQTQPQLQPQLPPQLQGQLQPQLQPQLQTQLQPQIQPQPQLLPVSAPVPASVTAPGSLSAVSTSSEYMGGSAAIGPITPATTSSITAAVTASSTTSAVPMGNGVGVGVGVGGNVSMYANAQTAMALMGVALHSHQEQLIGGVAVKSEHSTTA
parameter_measured: EC50

q: Given CO[C@H](CCC(C)C)[C@](C)(O)[C@H]1CC[C@@]2(O)C3=CC(=O)[C@@H]4C[C@@H](O)[C@@H](O)C[C@]4(C)[C@H]3CC[C@]12C [PoA-22-methyl ether] , state its recorded EC50.
a: ~0.03 µM

q: Requested field: EC50. Item: CO[C@H]1C[C@@]2(C)[C@@H](C[C@H]1O)C(=O)C=C1[C@@H]2CC[C@]2(C)[C@@H]([C@@](C)(O)[C@@H](CCC(C)(C)O)OC)CC[C@@]12O [20E-2,22-dimethyl ether]
a: ~20 µM

* * *

target: MsEcR (GAL4-EcR DEF with VP16-RXR-USP chimera) (Manduca sexta, UniProt P49883); assay: Two-hybrid gene switch assay, luciferase reporter, MsEcR, mouse NIH3T3 cells; conditions: EC50, FIG. 15, GAL4-EcR (DEF) / VP16-RXR-USP chimera
Sequence (P49883 whole entry, change not shown, the tested form may be a part): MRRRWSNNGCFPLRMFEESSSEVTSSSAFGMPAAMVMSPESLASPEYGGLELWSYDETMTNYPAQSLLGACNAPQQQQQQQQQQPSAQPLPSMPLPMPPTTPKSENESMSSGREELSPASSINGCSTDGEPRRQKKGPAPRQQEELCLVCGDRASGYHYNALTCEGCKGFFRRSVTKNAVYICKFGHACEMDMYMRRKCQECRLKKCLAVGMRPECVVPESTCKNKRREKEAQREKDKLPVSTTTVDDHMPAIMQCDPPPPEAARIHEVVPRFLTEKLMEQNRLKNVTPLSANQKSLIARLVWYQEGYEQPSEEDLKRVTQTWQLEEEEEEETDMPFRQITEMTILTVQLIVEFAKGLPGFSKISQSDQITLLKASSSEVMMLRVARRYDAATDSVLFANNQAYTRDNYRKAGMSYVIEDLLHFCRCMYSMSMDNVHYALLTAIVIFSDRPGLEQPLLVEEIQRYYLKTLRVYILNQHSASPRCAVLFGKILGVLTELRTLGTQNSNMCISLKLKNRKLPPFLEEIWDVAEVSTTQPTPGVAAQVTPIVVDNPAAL
Sequence (P28702 whole entry partner, the tested form may be a part): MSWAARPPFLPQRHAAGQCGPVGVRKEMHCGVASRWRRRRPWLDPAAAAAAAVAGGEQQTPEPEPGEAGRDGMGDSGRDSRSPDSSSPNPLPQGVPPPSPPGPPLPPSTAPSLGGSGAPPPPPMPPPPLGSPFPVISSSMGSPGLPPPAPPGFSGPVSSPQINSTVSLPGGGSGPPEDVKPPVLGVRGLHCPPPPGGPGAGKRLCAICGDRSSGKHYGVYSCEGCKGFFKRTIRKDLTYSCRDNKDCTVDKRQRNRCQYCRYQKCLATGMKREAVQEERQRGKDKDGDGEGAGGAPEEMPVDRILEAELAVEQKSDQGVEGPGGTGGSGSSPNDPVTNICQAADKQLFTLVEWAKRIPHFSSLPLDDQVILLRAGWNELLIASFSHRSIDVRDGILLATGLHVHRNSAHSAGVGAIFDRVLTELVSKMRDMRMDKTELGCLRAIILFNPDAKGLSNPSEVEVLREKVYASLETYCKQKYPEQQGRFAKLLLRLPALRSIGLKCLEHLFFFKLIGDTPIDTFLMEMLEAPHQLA
parameter_measured: EC50 (µM)
Express it in µM; write the number only.

q: Which value of EC50 has been reported for CC(C)CC[C@@H](O)[C@](C)(O)[C@H]1CC[C@@]2(O)C3=CC(=O)[C@@H]4C[C@@H](O)[C@@H](O)C[C@]4(C)[C@H]3CC[C@]12C [PoA, ponasterone A, reference compound] in the records?
a: 0.17

q: Item under review: CC(C)(O)CC[C@@H](O)[C@](C)(O)[C@H]1CC[C@@]2(O)C3=CC(=O)[C@]4(O)C[C@@H](O)[C@@H](O)C[C@]4(C)[C@H]3CC[C@]12C . Reported EC50?
a: 4.35

* * *

target: AmaEcR (GAL4-EcR DEF with VP16-RXR-USP chimera) (Amblyomma americanum); assay: Two-hybrid gene switch assay, luciferase reporter, AmaEcR, mouse NIH3T3 cells; conditions: EC50, FIG. 16, GAL4-EcR (DEF) / VP16-RXR-USP chimera
Sequence (O44338 255-570, change not shown): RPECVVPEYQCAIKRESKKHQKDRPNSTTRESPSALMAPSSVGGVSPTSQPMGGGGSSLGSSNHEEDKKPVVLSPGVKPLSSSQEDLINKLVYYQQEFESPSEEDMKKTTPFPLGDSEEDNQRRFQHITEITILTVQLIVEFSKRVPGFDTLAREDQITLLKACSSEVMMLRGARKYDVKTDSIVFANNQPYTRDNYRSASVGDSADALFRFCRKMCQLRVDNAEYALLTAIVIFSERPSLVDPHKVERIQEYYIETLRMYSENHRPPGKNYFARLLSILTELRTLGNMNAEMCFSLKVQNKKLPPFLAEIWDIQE
Sequence (P28702 whole entry partner, the tested form may be a part): as the sequence (P28702 whole entry partner, the tested form may be a part) above
parameter_measured: EC50

q: Could you share which EC50 value was measured for CC(C)(O)CC[C@@H](O)[C@](C)(O)[C@H]1CC[C@@]2(O)C3=CC(=O)[C@@H]4C[C@@H](O)[C@@H](O)C[C@]4(C)[C@H]3CC[C@]12C [Compound 20-hydroxyecdysone] ?
a: ~800 nM

q: Give the measured EC50 of CC(C)(O)CC[C@H]1OC(C)(C)O[C@]1(C)[C@H]1CC[C@@]2(O)C3=CC(=O)[C@@H]4C[C@@H](O)[C@@H](O)C[C@]4(C)[C@H]3CC[C@]12C [20-hydroxyecdysone-20,22-acetonide] .
a: ~1000 nM

q: Can you look up the measured EC50 of CC(C)(O)CC[C@@H](O)[C@](C)(O)[C@H]1CC[C@@]2(O)C3=CC(=O)[C@]4(O)C[C@@H](O)[C@@H](O)C[C@]4(C)[C@H]3CC[C@]12C for me?
a: ~300 nM

q: Query: EC50; subject: CC(=O)C1CCC2(O)C3=CC(=O)C4CC(O)C(O)CC4(C)C3CCC12C (centres unmarked)
a: ~10000 nM

q: What measured EC50 goes with C[C@H]([C@H](O)CCC(C)(C)O)[C@H]1CC[C@@]2(O)C3=CC(=O)[C@@H]4C[C@@H](O)[C@@H](O)C[C@]4(C)[C@H]3CC[C@]12C ?
a: > 33000 nM

* * *

For each record, write down the corresponding rel max FI (PoA), MS.
molecular target: Manduca sexta EcR (MsEcR) (Manduca sexta, UniProt P49883); experiment: Two-hybrid gene switch assay, MsEcR-CDEF in NIH3T3 cells; conditions: MsEcR; max fold induction at any concentration relative to PoA
Sequence (P49883 293-531 limits assumed): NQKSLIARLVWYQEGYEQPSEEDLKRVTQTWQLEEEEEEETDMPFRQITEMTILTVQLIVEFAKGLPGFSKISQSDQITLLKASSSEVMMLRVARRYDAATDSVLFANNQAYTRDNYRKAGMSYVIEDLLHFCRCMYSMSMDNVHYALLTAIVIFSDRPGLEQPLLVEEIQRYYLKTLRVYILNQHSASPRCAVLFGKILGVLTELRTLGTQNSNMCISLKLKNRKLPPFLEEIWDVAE
Response field accepts a number only; no unit should be typed.

q: # returns recorded rel max FI (PoA), MS (system: Manduca sexta EcR (MsEcR) (Manduca sexta, UniProt P49883)) for CO[C@H]1C[C@@]2(C)[C@@H](C[C@H]1O)C(=O)C=C1[C@@H]2CC[C@]2(C)[C@@H]([C@@](C)(O)[C@@H](CCC(C)(C)O)OC)CC[C@@]12O [20E-2,22-dimethyl ether]
a: 0.09

q: I'm curious: which rel max FI (PoA), MS was measured for CO[C@H](CCC(C)(C)O)[C@](C)(O)C1CC[C@@]2(O)C3=CC(=O)C4C[C@@H](O)[C@@H](O)CC4(C)C3CCC12C (stereo partly drawn) [20E-22-methyl ether] tested on Manduca sexta EcR (MsEcR) (Manduca sexta, UniProt P49883)?
a: 0.81

q: Give the reported rel max FI (PoA), MS for CO[C@@H]1C[C@H]2C(=O)C=C3[C@H](CC[C@]4(C)[C@@H]([C@@](C)(O)[C@@H](CCC(C)(C)O)OC)CC[C@@]34O)[C@@]2(C)C[C@@H]1O [20E-3,22-dimethyl ether] (system: Manduca sexta EcR (MsEcR) (Manduca sexta, UniProt P49883)).
a: 0.52

q: Record lookup: for Manduca sexta EcR (MsEcR) (Manduca sexta, UniProt P49883), what rel max FI (PoA), MS belongs to CO[C@@H]1C[C@H]2C(=O)C=C3[C@H](CC[C@]4(C)[C@@H]([C@@](C)(O)[C@H](O)CCC(C)(C)O)CC[C@@]34O)[C@@]2(C)C[C@@H]1O [20E-3-methyl ether] ?
a: 0.73

q: So what rel max FI (PoA), MS did CO[C@H]1C[C@@]2(C)[C@@H](C[C@H]1O)C(=O)C=C1[C@@H]2CC[C@]2(C)[C@@H]([C@@](C)(O)[C@H](O)CCC(C)(C)O)CC[C@@]12O [20E-2-methyl ether] get with Manduca sexta EcR (MsEcR) (Manduca sexta, UniProt P49883)?
a: 0.10

q: Query for Manduca sexta EcR (MsEcR) (Manduca sexta, UniProt P49883): what rel max FI (PoA), MS does the record show for COC1C[C@H]2C(=O)C=C3[C@H](CC[C@]4(C)[C@@H]([C@@](C)(O)C(CCC(C)(C)O)OC)CC[C@@]34OC)[C@@]2(C)CC1OC (stereo partly drawn) [20E-2,3,14,22-tetramethyl ether] ?
a: 0.00
